// data source = patent US9386767B2

# experimental.system: CYP3A4 (BDGentest) (Homo sapiens, UniProt P08684)
# Construct: purchased BDGentest
# Sequence (P08684 whole entry): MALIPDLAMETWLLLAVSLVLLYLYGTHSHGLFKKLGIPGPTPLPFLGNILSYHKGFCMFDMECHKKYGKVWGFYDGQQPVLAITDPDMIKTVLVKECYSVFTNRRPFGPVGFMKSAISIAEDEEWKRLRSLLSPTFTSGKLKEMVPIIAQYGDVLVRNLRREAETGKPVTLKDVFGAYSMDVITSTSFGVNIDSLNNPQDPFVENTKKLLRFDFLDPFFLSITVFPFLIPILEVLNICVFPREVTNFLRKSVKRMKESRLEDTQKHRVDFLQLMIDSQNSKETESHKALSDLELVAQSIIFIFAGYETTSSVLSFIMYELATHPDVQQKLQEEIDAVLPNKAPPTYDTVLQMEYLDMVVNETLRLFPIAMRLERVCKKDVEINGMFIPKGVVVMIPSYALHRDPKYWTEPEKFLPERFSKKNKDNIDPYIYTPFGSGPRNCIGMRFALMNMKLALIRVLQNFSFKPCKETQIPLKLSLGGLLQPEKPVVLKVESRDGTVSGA
# measurement.notes: New CYP3A4 bioassay with dibenzylfluorescein (DBF) substrate (Foster et al. 2011)
# Format: biochemical
# test.context: new CYP3A4 bioassay; inhibition relative to dillapiol
Quick rule: % Activity relative to dillapiol = 1 of at least 6 means criterion met, below that means criterion not met.

Solved entries:
compound: COc1c(CCCOCc2ccccc2)cc2c(c1OC)OCO2
category.label: criterion not met

compound: O=C(OCCCc1cc2c(cc1OCc1ccccc1)OCO2)c1ccc2c(c1)OCO2
category.label: criterion met

compound: OC(CCCC/C=C/c1ccc2c(c1)OCO2)(c1ccccc1)c1ccccc1
category.label: criterion met

compound: COc1c(CC/C=C/C(=O)NC(C)C)cc2c(c1OC)OCO2
category.label: criterion not met

compound: COc1cc2c(cc1CCCOC(=O)c1ccccc1)OCO2 [drawing 73]
category.label: criterion not met

// query Answer whether % Activity relative to dillapiol = 1 of COc1ccc(OC)c(COc2cc3c(cc2CCCOC(=O)C(c2ccccc2)c2ccccc2)OCO3)c1 [drawing 79] is greater than or equal to 6.
// result criterion met

----------
Listed next: entries and their corresponding IC50.
# experimental.system: CYP3A4 (BDGentest) (Homo sapiens)
# Construct: purchased BDGentest
# measurement.notes: New CYP3A4 bioassay with dibenzylfluorescein (DBF) substrate (Foster et al. 2011)
# Format: biochemical
# test.context: IC50, DBF substrate 1 μM, human microsomes

cpd.smiles: CCCc1cc2c(cc1OC)OCO2
experimental.system: CYP3A4 (BDGentest) (Homo sapiens)
IC50: > 26 µM

Record COc1c(CCCOC(=O)Cc2ccccc2)cc2c(c1OC)OCO2 . Reported IC50: 1.9 µM

Lab note: C=CCc1cc2c(c(OC)c1OC)OCO2 gave IC50 of 9.45 µM

IC50 reported for this compound C=CCc1cc2c(cc1OC)OCO2 : > 26 µM

----------
# experimental.system: CYP3A4 (Homo sapiens, UniProt P08684)
# Construct: purchased BDGentest
# Sequence (P08684 whole entry): as above
# measurement.notes: New CYP3A4 bioassay with dibenzylfluorescein (DBF) substrate (Foster et al. 2011)
# Format: biochemical
# test.context: human, CYP3A4 (BDGentest) isozyme within human microsomes, pH 7.4, probe dibenzylfluorescein (DBF), 1 μM final, DBF substrate 1 μM, human microsomes
reported.endpoint: IC50
Enter the number, and then the unit.

Consider COc1c(CCCO)cc2c(c1OC)OCO2 . Its measured IC50 is 16 µM

----------
# experimental.system: CYP3A4 (BDGentest) (Homo sapiens)
# Construct: purchased BDGentest
# measurement.notes: New CYP3A4 bioassay with dibenzylfluorescein (DBF) substrate (Foster et al. 2011)
# Assay type: biochemical
# Method: In the second set of experiments, new CYP3A4 enzyme inhibition assays were conducted with a designed set of analogs and newer method described by Foster et al. (J. Agric. Food Chem, 2011, 59(9):5159-5163). This assay using the substrate dibenzylfluorescein (DBF) is considered more representative of CYP3A4 activity as compared to the benzyloxyresorufin assay previously used (Budzinski et al., 2000, Phytomedicine, 7(4):273-282). […]

cpd.smiles: O=C(OCCCc1cc2c(cc1OCc1ccccc1)OCO2)C(c1ccccc1)c1ccccc1
CYP3A4 inhibition (in words): strong CYP3A4 inhibitors

cpd.smiles: COc1ccc(OC)c(COc2cc3c(cc2CCCOC(=O)C(c2ccccc2)c2ccccc2)OCO3)c1
CYP3A4 inhibition (in words): strong CYP3A4 inhibitors
